Value source: ChEMBL document CHEMBL1154095

experimentalProtocol: Inhibition of Saccharomyces sp. alpha-glucosidase assessed as p-nitrophenol release
For each entry below, report its pIC50 value.
Scale: negative log10 of molar concentration, which is what pIC50 denotes.

Memo: O=C1c2c(Cl)c(Cl)c(Cl)c(Cl)c2C(=O)N1c1ccccc1CCc1ccc(O)c(O)c1 , reported pIC50: 4.70

The value of pIC50 measured for the compound O=C1c2c(Cl)c(Cl)c(Cl)c(Cl)c2C(=O)N1c1cccc(CCc2cccc(O)c2)c1 turned out to be 4.30

Data point: COc1ccc(CCc2ccc(N3C(=O)c4c(Cl)c(Cl)c(Cl)c(Cl)c4C3=O)cc2)cc1OC ; pIC50 = 4.74

// sample O=C1c2ccccc2C(=O)N1c1cccc(CCc2ccc(O)c(O)c2)c1 , its pIC50 was 4.42

Sure, the documented pIC50 for COc1cccc(CCc2ccc(N3C(=O)c4c(Cl)c(Cl)c(Cl)c(Cl)c4C3=O)cc2)c1 is 4.19

Item: COc1ccc(/C=C/c2cccc(N3C(=O)c4c(Cl)c(Cl)c(Cl)c(Cl)c4C3=O)c2)cc1OC | pIC50: 4.57

Entry O=C1c2c(Cl)c(Cl)c(Cl)c(Cl)c2C(=O)N1c1ccc(CCc2ccccc2)cc1 — recorded pIC50 = 4.77
